src = ChEMBL document CHEMBL5360568

Here's a batch of compounds along with measured IC50 for Acetylcholinesterase (Electrophorus electricus, UniProt O42275).
Please state the value followed by its unit.

Below, 6 compounds whose answers are already recorded.
>  <compound>
CCOP(=O)(OCC)C(Nc1ccc([N+](=O)[O-])cc1)c1ccc(OCc2nc3ccccc3c(=O)n2-c2ccc(F)cc2)c(OC)c1 (configuration not stated)

>  <parameter measured>
IC50

>  <observed result>
315 nM

$$$$
>  <compound>
CCOP(=O)(OCC)C(Nc1nncs1)c1ccc(OCc2nc3ccccc3c(=O)n2-c2ccc(F)cc2)c(OC)c1 (configuration not stated)

>  <parameter measured>
IC50

>  <observed result>
361 nM

$$$$
>  <compound>
CCOP(=O)(OCC)C(Nc1cccc(O)c1)c1ccc(OCc2nc3ccccc3c(=O)n2-c2ccc(F)cc2)c(OC)c1 (configuration not stated)

>  <parameter measured>
IC50

>  <observed result>
369 nM

$$$$
>  <compound>
CCOP(=O)(OCC)C(Nc1ccc(OC)cc1)c1ccc(OCc2nc3ccccc3c(=O)n2-c2ccc(F)cc2)c(OC)c1 (configuration not stated)

>  <parameter measured>
IC50

>  <observed result>
431 nM

$$$$
>  <compound>
CCOP(=O)(OCC)C(Nc1cc(C)cc(C)c1)c1ccc(OCc2nc3ccccc3c(=O)n2-c2ccc(F)cc2)c(OC)c1 (configuration not stated)

>  <parameter measured>
IC50

>  <observed result>
465 nM

$$$$
>  <compound>
CCOP(=O)(OCC)C(Nc1ccccc1C(C)=O)c1ccc(OCc2nc3ccccc3c(=O)n2-c2ccc(F)cc2)c(OC)c1 (configuration not stated)

>  <parameter measured>
IC50

>  <observed result>
378 nM

$$$$

Look up IC50 for this compound: CCOP(=O)(OCC)C(Nc1ccc(C)cc1)c1ccc(OCc2nc3ccccc3c(=O)n2-c2ccc(F)cc2)c(OC)c1 (configuration not stated)
669 nM

----------
Biological target: Acetylcholinesterase (Electrophorus electricus)
Sequence (O42275 whole entry): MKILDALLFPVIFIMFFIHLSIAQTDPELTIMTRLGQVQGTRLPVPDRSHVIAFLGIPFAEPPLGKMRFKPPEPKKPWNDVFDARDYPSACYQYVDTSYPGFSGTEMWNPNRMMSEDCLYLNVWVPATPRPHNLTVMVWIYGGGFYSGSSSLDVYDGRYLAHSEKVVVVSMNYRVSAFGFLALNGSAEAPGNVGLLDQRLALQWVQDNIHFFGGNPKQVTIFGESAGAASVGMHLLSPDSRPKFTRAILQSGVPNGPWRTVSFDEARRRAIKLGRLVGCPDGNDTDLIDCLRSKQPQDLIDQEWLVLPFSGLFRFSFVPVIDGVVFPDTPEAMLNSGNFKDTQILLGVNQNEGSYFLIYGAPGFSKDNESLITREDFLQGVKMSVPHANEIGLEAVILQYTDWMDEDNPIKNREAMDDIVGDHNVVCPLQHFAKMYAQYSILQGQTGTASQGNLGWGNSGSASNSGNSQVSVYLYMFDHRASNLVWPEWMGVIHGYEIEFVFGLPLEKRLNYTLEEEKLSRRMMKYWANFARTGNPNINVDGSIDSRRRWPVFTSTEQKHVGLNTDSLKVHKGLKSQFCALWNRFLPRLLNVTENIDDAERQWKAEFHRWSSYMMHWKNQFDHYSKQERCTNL
parameter measured: pIC50
Scale for pIC50: -log10 of concentration given in mol/L; no unit attached.

Worked cases, pIC50 given:
>  <compound>
CCOP(=O)(OCC)C(Nc1ccc(C(=O)O)cc1)c1ccc(OCc2nc3ccccc3c(=O)n2-c2ccc(F)cc2)c(OC)c1 (centres undefined)

>  <pIC50>
6.54

$$$$
>  <compound>
CCOP(=O)(OCC)C(Nc1ccccc1O)c1ccc(OCc2nc3ccccc3c(=O)n2-c2ccc(F)cc2)c(OC)c1 (centres undefined)

>  <pIC50>
6.25

$$$$
>  <compound>
CCOP(=O)(OCC)C(Nc1ccccc1OC)c1ccc(OCc2nc3ccccc3c(=O)n2-c2ccc(F)cc2)c(OC)c1 (centres undefined)

>  <pIC50>
6.53

$$$$

API: the following record is the query input.
Query (compound): CCOP(=O)(OCC)C(Nc1ccc(F)cc1)c1ccc(OCc2nc3ccccc3c(=O)n2-c2ccc(F)cc2)c(OC)c1 (centres undefined) ; field requested: pIC50
6.09

----------
viability at 24 h, up to 60 µM for assorted molecules
Experiment: Cytotoxicity against human SK-N-SH cells assessed as cell viability at 30 to 60 uM incubated for 24 hrs by MTT assay
Type: toxicity, cell-based
Settings: dose 30-60 µM, read-out: Activity

Examples with their reported viability at 24 h, up to 60 µM follow.
>  <molecule>
CCOP(=O)(OCC)C(Nc1ccccc1OC)c1ccc(OCc2nc3ccccc3c(=O)n2-c2ccc(F)cc2)c(OC)c1 (stereo not drawn)

>  <parameter measured>
viability at 24 h, up to 60 µM

>  <observed result>
> 90%

$$$$
>  <molecule>
CCOP(=O)(OCC)C(Nc1ccc(C(=O)O)cc1)c1ccc(OCc2nc3ccccc3c(=O)n2-c2ccc(F)cc2)c(OC)c1 (stereo not drawn)

>  <parameter measured>
viability at 24 h, up to 60 µM

>  <observed result>
> 90%

$$$$

We next turn to a different molecule, shown below.
Query (molecule): CCOP(=O)(OCC)C(Nc1cccc(Cl)c1Cl)c1ccc(OCc2nc3ccccc3c(=O)n2-c2ccc(F)cc2)c(OC)c1 (stereo not drawn) ; field requested: viability at 24 h, up to 60 µM
> 90%
